system: Candida albicans; experiment: Antifungal activity against fluconazole/ITC-resistant Candida albicans ATCC MYA-1003 measured after 48 hrs by CLSI M27-A3 protocol based method; assay type: functional; conditions: Candida albicans, ATCC MYA-1003, 48 h; read-out: MIC
Listing of recorded MIC by entry.
Quantity name: MIC (µM)

compound="CCCCCCNCC(O)(Cn1cncn1)c1ccc(F)cc1F (stereo unspecified)" measured_target="Candida albicans" unit_descriptor=µM comparison_operator== recorded_result=92.3
compound="CCCCCCCCN(CCCCCCCC)CC(O)(Cn1cncn1)c1ccc(F)cc1F (stereo unspecified)" measured_target="Candida albicans" unit_descriptor=µM comparison_operator=> recorded_result=65.4
compound="CCCCCCN(CCCCCC)CC(O)(Cn1cncn1)c1ccc(F)cc1F (stereo unspecified)" measured_target="Candida albicans" unit_descriptor=µM comparison_operator=> recorded_result=74.1
compound="CCCCCCCCCCCCCCNCC(O)(Cn1cncn1)c1ccc(F)cc1F (stereo unspecified)" measured_target="Candida albicans" unit_descriptor=µM comparison_operator== recorded_result=69.5
compound=CC[C@H](C)C[C@H](C)CCCCCCCCC(=O)N[C@H]1C[C@@H](O)[C@@H](NCCN)NC(=O)[C@@H]2[C@@H](O)CCN2C(=O)[C@H]([C@H](O)CCN)NC(=O)[C@H]([C@H](O)[C@@H](O)c2ccc(O)cc2)NC(=O)[C@@H]2C[C@@H](O)CN2C(=O)[C@H]([C@@H](C)O)NC1=O measured_target="Candida albicans" unit_descriptor=µM comparison_operator== recorded_result=0.4
compound="OCCCCCCNCC(O)(Cn1cncn1)c1ccc(F)cc1F (stereo unspecified)" measured_target="Candida albicans" unit_descriptor=µM comparison_operator=> recorded_result=88.3
